target: L1 EN (LINE-1 retrotransposon endonuclease domain) (Homo sapiens, UniProt O00370, N5T); assay: Fluorescent oligonucleotide EN nicking activity assay; type: biochemical; conditions: [Inhibitor] 1000 μM; technical replicates 1-3, Fig. 2b source data; read-out: EN activity, percent of no inhibitor control
Sequence (O00370 1-239 N5T): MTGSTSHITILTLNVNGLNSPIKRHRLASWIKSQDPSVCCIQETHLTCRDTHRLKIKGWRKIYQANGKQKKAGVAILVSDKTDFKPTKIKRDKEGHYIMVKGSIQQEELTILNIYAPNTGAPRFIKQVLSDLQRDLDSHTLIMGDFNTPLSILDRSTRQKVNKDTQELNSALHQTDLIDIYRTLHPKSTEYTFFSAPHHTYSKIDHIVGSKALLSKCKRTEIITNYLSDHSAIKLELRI
Listing of recorded remaining activity at 1000 µM by entry.
Write it as a number; the unit % goes unstated.

INSERT INTO measurements (compound, metric, test_result) VALUES
  ('C[C@H]1C[C@H](C)CN(CCCNc2ccc(C(=O)Nc3ccc(C(F)(F)F)cc3)cc2[N+](=O)[O-])C1 [AD9]', 'remaining activity at 1000 µM', 31.3),
  ('O=C(Cn1nc(-c2ccc(Br)cc2)ccc1=O)NC[C@H]1CC[C@H](C(=O)O)CC1 [AD43]', 'remaining activity at 1000 µM', 31.2),
  ('Cc1ccc(NC(=O)CSc2nc(-c3ccccc3F)nc3c2Cc2c(CO)cnc(C)c2O3)cc1 [AD28]', 'remaining activity at 1000 µM', 37.6),
  ('O=C(O)C1CCC(Cn2c(=S)[nH]c3ccc(F)cc3c2=O)CC1 (stereo not shown) [AD41]', 'remaining activity at 1000 µM', 3.26);

// remaining activity at 1000 µM value for COc1ccc(OC)c(NS(=O)(=O)c2ccc(NS(=O)(=O)c3cccc([N+](=O)[O-])c3)cc2)c1 [AD36] : 19.6

Measured remaining activity at 1000 µM, COc1ccc2c(c1)C(=O)N(CCc1ccc(S(=O)(=O)NC(=O)NC3CCCCC3)cc1)C(=O)C2(C)C [AD12] : 20.4

The compound listed as O=C(Nc1ccc(S(=O)(=O)NCc2ccco2)cc1)c1cc(NS(=O)(=O)c2cccs2)cc(NS(=O)(=O)c2cccs2)c1 [AD18] shows remaining activity at 1000 µM equal to 3.32
